Test system: MOLT-4 leukemia
test_protocol: NCI tumour cell line growth inhibition, 48 h
For each of the compounds below, state its GI50.

Fill in: GI50 of `COc1cc2nc(N3CCC[C@@H](NC4=CC(=O)c5ccccc5C4=O)C3)nc(N)c2cc1OC` is ___
2340 nM

Please report the recorded GI50 for `Nc1nc(Cl)nc2c1ncn2[C@@H]1O[C@H](COS(N)(=O)=O)[C@@H](O)[C@H]1O` .
10.9 nM

Tell me the measured GI50 of `C=C1C(=O)O[C@H]2[C@H]1CC/C(CNC(=O)/C=C/c1ccc(Cl)cc1Cl)=C\CC[C@@]1(C)O[C@@H]21` , please.
275 nM

I am curious: what GI50 value has been reported for `COc1cc(NC(=O)c2cc(O)c(C/C=C(\C)CCC=C(C)C)c(O)c2)cc2c1O[C@]1(C)CC[C@@H](O)C(C)(C)[C@H]1C2` ?
409 nM
